# EXPERIMENTAL TARGET: horseradish peroxidase (HRP) tagged delF508-CFTR (Homo sapiens, UniProt P13569, DEL508-508)
# Construct: expressed in transfected cells
# Sequence (P13569 with tags, fused parts or gaps DEL508-508): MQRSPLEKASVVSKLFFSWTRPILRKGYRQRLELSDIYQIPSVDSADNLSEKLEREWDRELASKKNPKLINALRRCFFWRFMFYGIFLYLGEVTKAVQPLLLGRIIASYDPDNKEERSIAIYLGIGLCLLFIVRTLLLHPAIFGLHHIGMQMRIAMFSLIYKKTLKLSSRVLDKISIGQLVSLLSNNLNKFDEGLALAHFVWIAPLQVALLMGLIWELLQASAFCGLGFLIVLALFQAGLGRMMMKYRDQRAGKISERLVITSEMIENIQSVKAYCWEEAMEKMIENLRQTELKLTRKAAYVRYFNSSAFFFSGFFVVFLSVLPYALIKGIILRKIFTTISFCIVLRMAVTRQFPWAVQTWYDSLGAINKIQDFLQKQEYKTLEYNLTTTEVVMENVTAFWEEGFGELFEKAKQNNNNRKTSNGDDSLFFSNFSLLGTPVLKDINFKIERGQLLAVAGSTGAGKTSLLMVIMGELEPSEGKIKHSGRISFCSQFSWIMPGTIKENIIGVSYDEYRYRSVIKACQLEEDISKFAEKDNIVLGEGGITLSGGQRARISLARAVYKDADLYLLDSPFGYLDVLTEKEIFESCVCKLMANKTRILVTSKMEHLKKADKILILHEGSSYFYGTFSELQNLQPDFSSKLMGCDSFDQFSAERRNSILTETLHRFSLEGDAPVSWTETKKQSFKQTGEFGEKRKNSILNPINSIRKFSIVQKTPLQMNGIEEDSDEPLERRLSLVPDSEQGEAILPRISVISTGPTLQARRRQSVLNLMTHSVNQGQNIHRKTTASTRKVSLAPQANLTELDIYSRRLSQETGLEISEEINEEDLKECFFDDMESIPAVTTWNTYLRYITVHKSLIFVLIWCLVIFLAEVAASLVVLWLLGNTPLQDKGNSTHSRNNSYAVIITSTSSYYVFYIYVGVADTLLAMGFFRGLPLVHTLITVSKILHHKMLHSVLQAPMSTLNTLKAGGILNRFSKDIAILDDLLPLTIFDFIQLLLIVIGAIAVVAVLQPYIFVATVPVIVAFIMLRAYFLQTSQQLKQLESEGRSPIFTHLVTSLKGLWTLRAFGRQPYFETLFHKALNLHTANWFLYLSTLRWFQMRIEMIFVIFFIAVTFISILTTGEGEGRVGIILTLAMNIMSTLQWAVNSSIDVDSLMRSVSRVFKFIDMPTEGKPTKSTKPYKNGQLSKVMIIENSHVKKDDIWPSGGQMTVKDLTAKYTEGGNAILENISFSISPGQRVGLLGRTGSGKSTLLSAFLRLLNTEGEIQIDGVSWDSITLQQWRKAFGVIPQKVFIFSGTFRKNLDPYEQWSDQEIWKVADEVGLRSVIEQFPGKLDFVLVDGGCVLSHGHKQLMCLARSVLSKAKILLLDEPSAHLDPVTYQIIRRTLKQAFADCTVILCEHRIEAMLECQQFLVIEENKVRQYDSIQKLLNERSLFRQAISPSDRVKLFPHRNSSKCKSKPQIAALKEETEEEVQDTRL
# TEST: Measurement of delF508-CFTR-HRP surface expression in CFBE41o- cells;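 note: percent efficacy relative to reference corrector lumacaftor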
# Assay type: cell-based
# MEASUREMENT PARAMETERS: delF508-CFTR-HRP surface expression, CFBE41o- cells; read-out: DelF508-CFTR-HRP Amax %
Where a name gives a salt, the structure may show the parent alone.
Reported Emax by item:
Write the value in % as a bare number.

COMPOUND: Nc1cccc(S(=O)(=O)Nc2ccc(Cl)c(-c3ccccc3OC(F)(F)F)n2)n1 [Example 59]
READING: 258
//
COMPOUND: Cc1cccc(C)c1-c1cc(C(F)(F)F)cc(NS(=O)(=O)c2cccc(N)n2)n1 [Example 5]
READING: 629

GET /value?item= CCc1ccccc1-c1nc(NS(=O)(=O)c2cccc(N)n2)ccc1Cl [Example 29] &field=Emax returns 429

GET /value?item= Cc1c(F)cccc1-c1nc(NS(=O)(=O)c2cccc(N3CCn4cnnc4C3)n2)ccc1Cl [Example 146] &field=Emax returns 59.1

GET /value?item= O=S(=O)(Nc1ccc(Cl)c(-c2cccc(F)c2Cl)n1)c1cccc(N2CCNCC2)n1 [Example 159, hydrochloride] &field=Emax returns 130

GET /value?item= O=S(=O)(Nc1ccc(C(F)(F)F)c(-c2ccc(F)cc2Cl)n1)c1cccc(N2CCNCC2)n1 [Example 153, Hydrochloride] &field=Emax returns 159

GET /value?item= O=S(=O)(Nc1ccc(Cl)c(-c2ccc(F)cc2Cl)n1)c1cccc(N2CCNCC2)n1 [Example 157] &field=Emax returns 180

GET /value?item= Cc1ccccc1-c1nc(NS(=O)(=O)c2cccc(OC3COCC3=O)n2)ccc1C(F)(F)F (racemic) [Example 292] &field=Emax returns 225

GET /value?item= COc1ccc(F)cc1-c1nc(NS(=O)(=O)c2cccc(N3CC(O)C3)n2)ccc1C(F)(F)F [Example 209] &field=Emax returns 231

GET /value?item= Cc1ccccc1-c1nc(NS(=O)(=O)c2cccc(N3CCC[C@H](C(=O)O)C3)n2)ccc1C(F)(F)F [Example 333] &field=Emax returns 428

GET /value?item= Cc1ccccc1-c1nc(NS(=O)(=O)c2cccc(N)n2)ccc1Cl [Example 14] &field=Emax returns 523

GET /value?item= Cc1ccccc1-c1nc(NS(=O)(=O)c2cccc(N3C[C@H](O)[C@@H](N4CCCC4)C3)n2)ccc1C(F)(F)F [Example 118] &field=Emax returns 492
